// data source = ChEMBL document CHEMBL6182915

# Tested on: MV4-11
# Assay name: cells
# Condition: Homo sapiens, MV4-11, 72 h
Property label: IC50 (µM)

Solved cases (9 shown):
{"Structure as smiles": "Nc1cc(-c2ccc3c(/C=C/c4ccccc4)n[nH]c3c2)ccn1", "System name": "MV4-11", "Recorded number": 6.1}
{"Structure as smiles": "Nc1cc(-c2ccc3c(/C=C/c4ccncc4)n[nH]c3c2)ccn1", "System name": "MV4-11", "Recorded number": 6.9}
{"Structure as smiles": "Nc1cc(-c2ccc3c(/C=C/c4ccc(C(=O)N5CCOCC5)cc4)n[nH]c3c2)ccn1", "System name": "MV4-11", "Recorded number": 2.3}
{"Structure as smiles": "O=C(c1ccc(/C=C/c2n[nH]c3cc(-c4ccccc4)ccc23)cc1)N1CCNCC1", "System name": "MV4-11", "Recorded number": 6.9}
{"Structure as smiles": "Nc1cc(-c2cnc3c(/C=C/c4ccc(CN5CCOCC5)c(F)c4)n[nH]c3c2)ccn1", "System name": "MV4-11", "Recorded number": 0.9}
{"Structure as smiles": "Nc1cc(-c2ccc3c(/C=C/c4cccnc4)n[nH]c3c2)ccn1", "System name": "MV4-11", "Recorded number": 2.3}
{"Structure as smiles": "O=C(c1ccc(/C=C/c2n[nH]c3cc(-c4ccncc4)ccc23)cc1)N1CCNCC1", "System name": "MV4-11", "Recorded number": 3.4}
{"Structure as smiles": "CN1CCN(Cc2ccc(/C=C/c3n[nH]c4cc(-c5ccnc(N)c5)ccc34)cc2)CC1", "System name": "MV4-11", "Recorded number": 1.6}
{"Structure as smiles": "Nc1cc(-c2ccc3c(/C=C/c4ccc(N5CCOCC5)cc4)n[nH]c3c2)ccn1", "System name": "MV4-11", "Recorded number": 3.4}

(1) CN1CCN(c2ccc(/C=C/c3n[nH]c4cc(-c5ccnc(N)c5)ccc34)cc2)CC1
(2) O=C(c1ccc(/C=C/c2n[nH]c3cc(-c4ccnc5[nH]ccc45)ccc23)cc1)N1CCNCC1
(3) Nc1cc(-c2ccc3c(/C=C/c4ccc(CN5CCOCC5)cc4)n[nH]c3c2)ccn1
# input Descending sort on IC50 required. # the answer lists labels in the order requested
# output 2, 1, 3

* * *

# Tested on: MV4-11
# Assay name: cells
# Condition: Homo sapiens, MV4-11, 72 h
Reported IC50 values follow for various molecules

Solved cases (4 shown):
{"Structure as smiles": "Nc1nccc(-c2ccc3c(/C=C/c4ccc(CN5CCOCC5)c(F)c4)n[nH]c3c2)n1", "Property label": "IC50", "Result": "0.6 µM"}
{"Structure as smiles": "COc1cc(/C=C/c2n[nH]c3cc(-c4ccnc(N)c4)ccc23)cc(OC)c1", "Property label": "IC50", "Result": "> 10 µM"}
{"Structure as smiles": "Nc1cc(-c2ccc3c(/C=C/c4ccc(CN5CCOCC5)c(Cl)c4)n[nH]c3c2)ccn1", "Property label": "IC50", "Result": "0.8 µM"}
{"Structure as smiles": "O=C(c1ccc(/C=C/c2n[nH]c3cc(-c4cccnc4)ccc23)cc1)N1CCNCC1", "Property label": "IC50", "Result": "> 10 µM"}

The reported value for O=C(c1ccc(/C=C/c2n[nH]c3ccc(-c4ccncc4)cc23)cc1)N1CCNCC1 in terms of IC50 is > 10 µM

The reported value for Nc1cc(-c2ccc3c(-c4ccc(CN5CCOCC5)cc4)n[nH]c3c2)ccn1 in terms of IC50 is > 10 µM

The reported value for CN1CCN(Cc2ccc(-c3n[nH]c4cc(-c5ccnc(N)c5)ccc34)cc2)CC1 in terms of IC50 is > 10 µM

The reported value for O=C(c1ccc(/C=C/c2n[nH]c3ccc(-c4ccccc4)cc23)cc1)N1CCNCC1 in terms of IC50 is > 10 µM

The reported value for Nc1cc(-c2ccc3c(/C=C/c4ccc(C(=O)N5CCNCC5)cc4)n[nH]c3c2)ccn1 in terms of IC50 is 1.8 µM
